Sourced from patent EP4631940A1

Some compounds, each annotated with its measured DC50.
target or system: KRAS G12D (Homo sapiens, UniProt P01116, G12D)
Sequence (P01116 1-188 isoform P01116-2 G12D): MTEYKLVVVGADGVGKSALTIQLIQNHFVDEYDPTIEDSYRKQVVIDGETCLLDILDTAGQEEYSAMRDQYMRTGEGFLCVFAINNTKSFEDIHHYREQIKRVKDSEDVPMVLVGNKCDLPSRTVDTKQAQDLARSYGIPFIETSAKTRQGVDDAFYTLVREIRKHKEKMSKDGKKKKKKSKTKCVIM

{"compound": "C=C1CN2[C@H](COC(=O)N3CCC4(CC3)CC(CNC(=O)C[C@H](NC(=O)[C@@H]3C[C@@H](O)CN3C(=O)C(c3cc(C)no3)C(C)C)c3ccc(-c5scnc5C)cc3)C4)CC[C@@]2(COc2nc(N3CCC[C@@](C)(O)C3)c3cnc(-c4cc(O)cc5ccc(F)c(CC)c45)c(F)c3n2)C1 (single isomer, unassigned)", "DC50 / µM": 0.031}
{"compound": "CCc1c(F)ccc2cc(O)cc(-c3ncc4c(N5CCC[C@@](C)(O)C5)nc(OCC5(CN6CCC7(CC6)CC(c6cn([C@H](C(=O)N8C[C@H](O)C[C@H]8C(=O)N[C@@H](C)c8ccc(-c9scnc9C)cc8)C(C)C)nn6)C7)CC5)nc4c3F)c12 [Compound 71]", "DC50 / µM": 0.02}
{"compound": "CCc1c(F)ccc2cc(O)cc(-c3ncc4c(N5CCC[C@@](C)(O)C5)nc(OCC5(CN6CCC(COc7ccc(-c8cn([C@H](C(=O)N9C[C@H](O)C[C@H]9C(=O)N[C@@H](C)c9ccc(-c%10scnc%10C)cc9)C(C)C)nn8)cc7)CC6)CC5)nc4c3F)c12", "DC50 / µM": 0.025}
{"compound": "CCc1c(F)ccc2cc(O)cc(-c3ncc4c(N5CCC[C@@](C)(O)C5)nc(OCC5(CN6CCC(c7cc([C@H](C(=O)N8C[C@H](O)C[C@H]8C(=O)N[C@@H](C)c8ccc(-c9scnc9C)cc8)C(C)C)on7)CC6)CC5)nc4c3F)c12", "DC50 / µM": 0.024}

---

assay info: in vitro
condition notes: dog, microsomes
Some molecules, each annotated with its measured microsomal CLint.
reported property: microsomal CLint (µL/min/mg)

{"chemical string": "CCc1c(F)ccc2cc(O)cc(-c3ncc4c(N5CCC[C@@](C)(O)C5)nc(OCC5(CN6CCC7(CC6)CN(c6cc([C@H](C(=O)N8C[C@H](O)C[C@H]8C(=O)N[C@@H](C)c8ccc(-c9scnc9C)cc8)C(C)C)on6)C7)CC5)nc4c3F)c12", "reported property": "microsomal CLint", "uom": "µL/min/mg", "quantitative readout": 28.5}
{"chemical string": "CCc1c(F)ccc2cc(O)cc(-c3ncc4c(N5CCC[C@@](C)(O)C5)nc(OCC5(CN6CCC(Oc7cc([C@H](C(=O)N8C[C@H](O)C[C@H]8C(=O)N[C@@H](C)c8ccc(-c9scnc9C)cc8)C(C)C)on7)CC6)CC5)nc4c3F)c12", "reported property": "microsomal CLint", "uom": "µL/min/mg", "quantitative readout": 50.5}
{"chemical string": "CCc1c(F)ccc2cc(O)cc(-c3ncc4c(N5CCC[C@@](C)(O)C5)nc(OCC5(CN6CCC(Oc7ccc(-c8cn([C@H](C(=O)N9C[C@H](O)C[C@H]9C(=O)N[C@@H](C)c9ccc(-c%10scnc%10C)cc9)C(C)C)nn8)cn7)CC6)CC5)nc4c3F)c12", "reported property": "microsomal CLint", "uom": "µL/min/mg", "quantitative readout": 26.9}
{"chemical string": "CCc1c(F)ccc2cc(O)cc(-c3ncc4c(N5CCC[C@@](C)(O)C5)nc(OCC5(CN6CCC(OCc7ccc(-c8cn([C@H](C(=O)N9C[C@H](O)C[C@H]9C(=O)N[C@@H](C)c9ccc(-c%10scnc%10C)cc9)C(C)C)nn8)cc7)CC6)CC5)nc4c3F)c12", "reported property": "microsomal CLint", "uom": "µL/min/mg", "quantitative readout": 28.5}
{"chemical string": "CCc1c(F)ccc2cc(O)cc(-c3ncc4c(N5CCC[C@@](C)(O)C5)nc(OCC5(CN6CCN(c7cnc(-c8cn([C@H](C(=O)N9C[C@H](O)C[C@H]9C(=O)N[C@@H](C)c9ccc(-c%10scnc%10C)cc9)C(C)C)nn8)cn7)CC6)CC5)nc4c3F)c12", "reported property": "microsomal CLint", "uom": "µL/min/mg", "quantitative readout": 5.5}
{"chemical string": "CCc1c(F)ccc2cc(O)cc(-c3ncc4c(N5CCC[C@@](C)(O)C5)nc(OCC5(CN6CCC(F)(COc7cc([C@H](C(=O)N8C[C@H](O)C[C@H]8C(=O)N[C@@H](C)c8ccc(-c9scnc9C)cc8)C(C)C)on7)CC6)CC5)nc4c3F)c12", "reported property": "microsomal CLint", "uom": "µL/min/mg", "quantitative readout": 57.5}
{"chemical string": "CCc1c(F)ccc2cc(O)cc(-c3ncc4c(N5CCC[C@@](C)(O)C5)nc(OCC5(CN6CCN(CC7CCN(c8cc([C@H](C(=O)N9C[C@H](O)C[C@H]9C(=O)N[C@@H](C)c9ccc(-c%10scnc%10C)cc9)C(C)C)on8)CC7)CC6)CC5)nc4c3F)c12", "reported property": "microsomal CLint", "uom": "µL/min/mg", "quantitative readout": 8.4}
{"chemical string": "CCc1c(F)ccc2cc(O)cc(-c3ncc4c(N5CCC[C@@](C)(O)C5)nc(OCC5(CN6CCC(Oc7cnc(-c8cn([C@H](C(=O)N9C[C@H](O)C[C@H]9C(=O)N[C@@H](C)c9ccc(-c%10scnc%10C)cc9)C(C)C)nn8)cn7)CC6)CC5)nc4c3F)c12", "reported property": "microsomal CLint", "uom": "µL/min/mg", "quantitative readout": 7.4}
{"chemical string": "CCc1c(F)ccc2cc(O)cc(-c3ncc4c(N5CCC[C@@](C)(O)C5)nc(OCC5(CN6CCC(Oc7ccc(-c8cn([C@H](C(=O)N9C[C@H](O)C[C@H]9C(=O)N[C@@H](C)c9ccc(-c%10scnc%10C)cc9)C(C)C)nn8)nc7)CC6)CC5)nc4c3F)c12", "reported property": "microsomal CLint", "uom": "µL/min/mg", "quantitative readout": 6.6}
{"chemical string": "C=C1CN2[C@H](COc3ccc(-c4cn([C@H](C(=O)N5C[C@H](O)C[C@H]5C(=O)N[C@@H](C)c5ccc(-c6scnc6C)cc5)C(C)C)nn4)cn3)CC[C@@]2(COc2nc(N3CCC[C@@](C)(O)C3)c3cnc(-c4cc(O)cc5ccc(F)c(CC)c45)c(F)c3n2)C1", "reported property": "microsomal CLint", "uom": "µL/min/mg", "quantitative readout": 88}
{"chemical string": "CCc1c(F)ccc2cc(O)cc(-c3ncc4c(N5CCC[C@@](C)(O)C5)nc(OC[C@]56CCCN5[C@@H](COC(=O)N5CCC7(CC5)CC(C(=O)N[C@H](C(=O)N5C[C@H](O)C[C@H]5C(=O)N[C@@H](C)c5ccc(-c8scnc8C)cc5)C(C)(C)C)C7)CC6)nc4c3F)c12", "reported property": "microsomal CLint", "uom": "µL/min/mg", "quantitative readout": 13.3}
{"chemical string": "CCc1c(F)ccc2cc(O)cc(-c3ncc4c(N5CCC[C@@](C)(O)C5)nc(OCC5(CN6CCC(COc7ccc(-c8cn([C@H](C(=O)N9C[C@H](O)C[C@H]9C(=O)N[C@@H](C)c9ccc(-c%10scnc%10C)cc9)C(C)C)nn8)cc7)CC6)CC5)nc4c3F)c12", "reported property": "microsomal CLint", "uom": "µL/min/mg", "quantitative readout": 16.4}
{"chemical string": "CCc1c(F)ccc2cc(O)cc(-c3ncc4c(N5CCC[C@@](C)(O)C5)nc(OCC5(CN6CCC(c7ccc(-c8cn([C@H](C(=O)N9C[C@H](O)C[C@H]9C(=O)N[C@@H](C)c9ccc(-c%10scnc%10C)cc9)C(C)C)nn8)cc7)CC6)CC5)nc4c3F)c12", "reported property": "microsomal CLint", "uom": "µL/min/mg", "quantitative readout": 9.3}
{"chemical string": "CCc1c(F)ccc2cc(O)cc(-c3ncc4c(N5CCC[C@@](C)(O)C5)nc(OCC5(CN6CCC(N7CCN(c8cc([C@H](C(=O)N9C[C@H](O)C[C@H]9C(=O)N[C@@H](C)c9ccc(-c%10scnc%10C)cc9)C(C)C)on8)CC7)CC6)CC5)nc4c3F)c12", "reported property": "microsomal CLint", "uom": "µL/min/mg", "quantitative readout": 18.3}

---

System: AGS
assay info: Cell proliferation experiment (CellTiter-Glo)
Assay type: cell-based
condition notes: Homo sapiens, AGS, 96 h, read-out: IC50(nM) AGS
reported property: IC50 (nM)

{"chemical string": "CCc1c(F)ccc2cc(O)cc(-c3ncc4c(N5CCC[C@@](C)(O)C5)nc(OCC5(CN6CCN(CC7CCN(c8cc([C@H](C(=O)N9C[C@H](O)C[C@H]9C(=O)N[C@@H](C)c9ccc(-c%10scnc%10C)cc9)C(C)C)on8)CC7)CC6)CC5)nc4c3F)c12", "reported property": "IC50", "quantitative readout": 20}
{"chemical string": "CCc1c(F)ccc2cc(O)cc(-c3ncc4c(N5CCC[C@@](C)(O)C5)nc(OCC5(CN6CC(N7CCN(c8cc([C@H](C(=O)N9C[C@H](O)C[C@H]9C(=O)N[C@@H](C)c9ccc(-c%10scnc%10C)cc9)C(C)C)on8)CC7)C6)CC5)nc4c3F)c12", "reported property": "IC50", "quantitative readout": 27}
{"chemical string": "CCc1c(F)ccc2cc(O)cc(-c3ncc4c(N5CCC[C@@](C)(O)C5)nc(OC[C@]56CCCN5[C@@H](COc5ncc(-c7cn([C@H](C(=O)N8C[C@H](O)C[C@H]8C(=O)N[C@@H](C)c8ccc(-c9scnc9C)cc8)C(C)C)nn7)cn5)CC6)nc4c3F)c12", "reported property": "IC50", "quantitative readout": 18}
{"chemical string": "CCc1c(F)ccc2cc(O)cc(-c3ncc4c(N5CCC[C@@](C)(O)C5)nc(OCC5(CN6CCN(c7cnc(-c8cn([C@H](C(=O)N9C[C@H](O)C[C@H]9C(=O)N[C@@H](C)c9ccc(-c%10scnc%10C)cc9)C(C)C)nn8)cn7)CC6)CC5)nc4c3F)c12", "reported property": "IC50", "quantitative readout": 10}
